In this section we review reported kon values for a set of binders.
- SYSTEM UNDER TEST: SARS-CoV-2 spike ectodomain (S-ecto), Wuhan-hu-1 strain, 2P (SARS-CoV-2, Wuhan-hu-1, UniProt P0DTC2, 2P mutation at residues 986 and 987 | 2P mutation at residues 986 and 987, biotin (NHS-sulfo-LC-Biotin, EZ-link biotinylation kit))
- METHOD DESCRIPTION: BLI
- PARTICULARS: both partners purified
OBSERVATION TYPE: kon (M⁻¹ s⁻¹)

• humanized SW186 H2L4 (antibody, V domains shown) VH: QVQLVQSGAEVKKPGSSVKVSCKASGVAFSSYWMNWVRQAPGQGLEWIGQIYPGDGDTNYNGKFKGRVTITADKSTSTAYMELSSLRSEDTAVYFCARGFIATVEETMDYWGQGTLVTVSS VL: DIQMTQSPSSLSASVGDRVTITCRASQDISNYLNWYQQKPGKTVKLLIYYTSRLHSGVPSRFSGSGSGTDYTLTISSLQPEDFATYFCQQSHTLPWTFGGGTKLEIK = 192000
• humanized SW186 H2L1 (antibody, V domains shown) VH: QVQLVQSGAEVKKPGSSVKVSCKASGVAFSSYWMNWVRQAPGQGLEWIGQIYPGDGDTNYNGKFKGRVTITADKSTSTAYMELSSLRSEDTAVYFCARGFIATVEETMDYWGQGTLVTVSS VL: DIQMTQSPSSLSASVGDRVTITCRASQDISNYLNWYQQKPGKAPKLLIYYTSRLHSGVPSRFSGSGSGTDFTLTISSLQPEDFATYYCQQSHTLPWTFGGGTKLEIK = 43100
• humanized SW186 H2L3 (antibody, V domains shown) VH: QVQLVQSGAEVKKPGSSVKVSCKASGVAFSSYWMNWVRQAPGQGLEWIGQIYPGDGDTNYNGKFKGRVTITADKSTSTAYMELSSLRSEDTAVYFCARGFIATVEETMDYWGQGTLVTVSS VL: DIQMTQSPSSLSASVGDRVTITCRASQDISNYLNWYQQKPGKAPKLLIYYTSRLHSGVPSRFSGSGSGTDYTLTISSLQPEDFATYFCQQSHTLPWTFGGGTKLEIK = 191000
• humanized SW186 H3L4 (antibody, V domains shown) VH: QVQLVQSGAEVKKPGSSVKVSCKASGVAFSSYWMNWVRQAPGQGLEWIGQIYPGDGDTNYNGKFKGRATITADKSTSTAYMELSSLRSEDTAVYFCARGFIATVEETMDYWGQGTLVTVSS VL: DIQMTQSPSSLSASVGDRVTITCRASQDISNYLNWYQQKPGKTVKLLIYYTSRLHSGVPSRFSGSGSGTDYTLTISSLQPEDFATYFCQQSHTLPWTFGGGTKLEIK = 181000
